Test system: MS2 coat protein
assay_summary: apparent KD of MS2 coat protein; designed switch direction (-1 OFF switch, 1 ON switch): -1; higher = weaker reporter binding
condition_label: Eterna round: R95; input ligand: FMN 200 uM
// label = rule met if apparent KD of MS2 coat protein is not less than 40 nM, otherwise rule not met

## Task Could you please find out whether GAUGAGGUAGGAUAUACGAUAAUAUAGGGUAGAUAUAUAACACAUGAGGAUCACCCAUGUAGAAGGACCAGGAG [Mat - Exclusion 2 - Mod of my Tesla design - D65] (puzzle: Exclusion 2) has apparent KD of MS2 coat protein that meets 40 nM or exceeds it?
## Result rule met

## Task // next record UGUUGUUGUUUCCGUUCUUACAUGAGGAUCACCCAUGUUUCUUGUCGUGCUCGCGUUGCUCGUCAGACUACCUGUUG [salish99_TOv1_r3_065] (puzzle: Sensor v3, turn-off variant 1)
## Result rule met

## Task Next record, please: AAACACUUAGGAUAUACAUGAGGAUCACCCAUGUCAGACAACGACUACACAAAGUCAUGUAGAAGGAAGUCAAG [Islarele] (puzzle: Exclusion 3)
## Result rule not met

## Task Another sequence to check: GCUUGGCGAGGAUAUACAUGAGGAUCACCCAUGUGAGAAGAAUAAGUGAGGAAGAAAAGUAGAAGGCGCUGAGG [Mat - Exclusion 3 - Mod of Salish D62] (puzzle: Exclusion 3)
## Result rule met

----------
Each record here notes measured apparent KD of MS2 coat protein.
System: MS2 coat protein
assay_summary: apparent KD of MS2 coat protein; designed switch direction (-1 OFF switch, 1 ON switch): -1; higher = weaker reporter binding
condition_label: input ligand: FMN 200 uM
Answer format: numeric, nM implied, no suffix.

{"ordered_residues": "UUUAAUCGUGACAUGGGUGACAUGAGGAUCACCCAUGUCACAAGCUUCUCGCUCGUCUUAUAAUUAACCCAUGUCAC [LRO Sensor-off var1-13 mod of Stov1-13-A1 by Brourd] (Eterna round: R97, puzzle: Sensor, turn-off variant 1)", "study_system": "MS2 coat protein", "test_result": 17.3}

Please turn your attention to the following entry.
## Task May I ask what apparent KD of MS2 coat protein has been recorded for ACUUGUGUUGAGGAUAUGCGCCGGCUCGCUGGCGCAGAAGGCGGCACAUGAGGAUCACCCAUGUCAGUUCGCGU [salish99_ex6_r004_002] (Eterna round: R97, puzzle: Exclusion 6) ?
## Result 300

----------
System: MS2 coat protein
assay_summary: apparent KD of MS2 coat protein; designed switch direction (-1 OFF switch, 1 ON switch): -1; higher = weaker reporter binding
condition_label: Eterna round: R95; input ligand: FMN 200 uM
readout: apparent KD of MS2 coat protein (µM)
Please give a number only; it is taken to be in µM.

{"ordered_residues": "AAUAACAAGCCGAUCCUAAACAUGAGGAUCACCCAUGUGCUCGUCUUGUAAAGUACUAUCACGAAAGUGAUAGUACA (puzzle: Sensor v3, turn-off variant 1)", "readout": "apparent KD of MS2 coat protein", "test_result": 0.0163}
{"ordered_residues": "GGUCUGCGAGGAUAUACAUGAGGAUCACCCAUGUGAGAGUUACUAGUGAGGUCGAUUGGUAGAAGGCGCGGACG [JL-ex3-2.04 salish99 mod] (puzzle: Exclusion 3)", "readout": "apparent KD of MS2 coat protein", "test_result": 0.019}

## Task Find the recorded apparent KD of MS2 coat protein belonging to GGUUGACAUGAGGAUCACCCAUGUGAGGAUAUGCGAGAGAAAAAAGUGAGGAAGUUUAGCAGAAGGCGCUGUCG [salish99-ex1_r3_006] (puzzle: Exclusion 1) and report it.
## Result 0.0556

## Task Follow-up item: UACCGGCGGACCGAAGCUUUUUGCUUGUUUUAUACUACAACAUGAGGAUCACCCAUGUGGUGGUGGUCCGUUGUAGU [JL ViennaUCT Bitein mod 1] (puzzle: Sensor v3, turn-off variant 2)
## Result 0.0639

## Task Now consider GUGUGCUGAGGAUAUACAGAGGAAGAUAAUAGAAUAGAAUGACAUGAGGAUCACCCAUGUAGAAGGCAGAGUGU [Excluse me!! 14 - Jieux - Exclusion 2] (puzzle: Exclusion 2) .
## Result 0.0405

## Task Same question for GCAUCCAAAGUGAGGAUAUACCUCUGGAUACAGAGGUAGAAGGCACAUGAGGAUCACCCAUGUUUCUAGGAUGC [Fiskers BMX 4 - 37] (puzzle: Brourd's mod of Exclusion 4) please.
## Result 0.0212

## Task Try this sequence too: AGAAAUGCCCAUGGCCGCAAGCCUUUUGCUUGUCUUACCACAUGAGGAUCACCCAUGUGACAUGGGCUCCUGAUAAU [Zace] (puzzle: Sensor v3, turn-off variant 2)
## Result 0.0126

## Task For CAUACUAAAGUCAGGAUAUGCGGUCGAAUACGGGCGUAGAAGGGACAUGAGGAUCACCCAUGUAGAUAGUAAAG [EX-4 Malc #19] (puzzle: Brourd's mod of Exclusion 4) then?
## Result 0.0153

## Task Request: GCCUAAGCAGGAUAUUCAAUAUGUCACAUGAGGAUCACCCAUGUCCAGCGAAAGCUGGAGGGAGAAGGGCUUAGGC [Mat - Exclusion 5 - Eli mod - D100] (puzzle: Exclusion 5)
## Result 0.0211

## Task Similarly, ACCUCUAUCUAGGAUAUUGGAACCCGGUUAAAACAAGAAGGAGAUACAUGAGGAUCACCCAUGUUAACGAUGGA [Ereseninso] (puzzle: Exclusion 6) ?
## Result 0.0975
